target: Melatonin receptor 3 (Mesocricetus auratus); experiment: Binding affinity against Melatonin receptor 3 (MT3) of Syrian hamster brain and peripheral organs
pKi: −log10 of the molar value.
Recorded pKi values for a group of compounds are listed next.

| compound | assay_target | qual | pKi |
| --- | --- | --- | --- |
| CCC(=O)NCCC1CCc2ccc3c(c21)OCO3 (configuration not stated) | Melatonin receptor 3 (Mesocricetus auratus) | = | 5.23 |
| CCC(=O)NCCC1CCc2ccc3c(c21)OCCO3 (configuration not stated) | Melatonin receptor 3 (Mesocricetus auratus) | = | 5.27 |
| CCC(=O)NCCC1CCc2ccc3ocnc3c21 (configuration not stated) | Melatonin receptor 3 (Mesocricetus auratus) | = | 7.28 |
| CC(=O)NCCC1CCc2cc3c(cc21)OCC3 (configuration not stated) | Melatonin receptor 3 (Mesocricetus auratus) | = | 6.63 |
| CC(=O)NCCC1CCc2ccc3c(c21)CCO3 (configuration not stated) | Melatonin receptor 3 (Mesocricetus auratus) | = | 5.22 |
| CCC(=O)NCCC1CCc2ccc3c(c21)NC(=O)CO3 (configuration not stated) | Melatonin receptor 3 (Mesocricetus auratus) | = | 5.59 |
| CCC(=O)NCCC1CCc2ccc3c(c21)NCCO3 (configuration not stated) | Melatonin receptor 3 (Mesocricetus auratus) | < | 5.00 |
| CCCC(=O)NCCC1CCc2ccc3c(c21)CCO3 (configuration not stated) | Melatonin receptor 3 (Mesocricetus auratus) | = | 5.97 |
| CCC(=O)NCCC1CCc2ccc3c(c21)CC(C)(C)O3 (configuration not stated) | Melatonin receptor 3 (Mesocricetus auratus) | = | 5.32 |
| CCC(=O)NCCC1CCc2cc3c(cc21)OCC3 (configuration not stated) | Melatonin receptor 3 (Mesocricetus auratus) | = | 6.59 |
| CCCC(=O)NCCC1CCc2cc3c(cc21)OCC3 (configuration not stated) | Melatonin receptor 3 (Mesocricetus auratus) | = | 6.31 |
| CCC(=O)NCCC1CCc2ccc3c(c21)CCCO3 (configuration not stated) | Melatonin receptor 3 (Mesocricetus auratus) | = | 5.21 |
